- Test system: A2780/CP70 ovarian carcinoma cells
- assay-overview: MTS cell proliferation assay, sensitization to cisplatin or oxaliplatin after oligonucleotide transfection
- experimental-setup: A2780/CP70 cells transfected with oligonucleotide, three days in drug, MTS assay
measurement-kind: reduction of the ID50 of oxaliplatin

substance: 5′(2037)-d(GGTGACAGCAGCATTTGGAT)-3′ (DNA, backbone not given here) [HYB 969]
result: 50%

substance: 5′-(3212)-d(GGAACATCATGGTCTGCTCC)-3′ [HYB 971]
result: 50%

substance: 5′(750)-d(GGTCCATACTCATGTTGATG)-3′ (DNA, backbone and methylation of C not given here) [HYB 963]
result: about 25%

substance: 5′(1110)-d(CTGACCTACCACTTCTGCAC)-3′ [HYB 964]
result: about 25%
